Catalogue of KD ratio to GLS3000 readings, one per entry.
Biological target: T1, CD3 epsilon homodimer protein (UniProt P07766 23-126)
T1 construct: also called CD3 (CD3 epsilon)
T1 sequence (P07766 23-126): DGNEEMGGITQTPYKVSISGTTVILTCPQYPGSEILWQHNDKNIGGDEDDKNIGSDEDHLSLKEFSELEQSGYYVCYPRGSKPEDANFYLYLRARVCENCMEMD
Experiment: SPR, antibody over immobilised CD3e homodimer;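 further: SPR at 25 °C with CD3 epsilon homodimer amine-coupled to a CM4 sensor chip and antibody flowed over as analyte in HBS-EP+ running buffer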
# output: bare number, no unit

[
  {
    "BINDER": "CE115HA000/GLS3000 T31I (antibody, IgG1, name in Kabat numbering, V domains shown, one-arm IgG1) VH: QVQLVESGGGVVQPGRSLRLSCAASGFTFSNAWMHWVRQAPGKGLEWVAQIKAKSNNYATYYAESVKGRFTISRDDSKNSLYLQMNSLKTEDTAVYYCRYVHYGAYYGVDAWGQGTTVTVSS VL: DIVMTQSPLSLPVTPGEPASISCRSSQSLVHSNRNIYLHWYQQKPGQAPRLLIYKVSNRFSGVPDRFSGSGSGTDFTLKISRVEAEDVGVYYCGQGTQVPYTFGQGTKLEIK",
    "KD ratio to GLS3000": 1.1
  }
]

// switching to the query binder
Documented KD ratio to GLS3000 of CE115HA000/GLS3000 R24D (antibody, IgG1, name in Kabat numbering, V domains shown, one-arm IgG1) VH: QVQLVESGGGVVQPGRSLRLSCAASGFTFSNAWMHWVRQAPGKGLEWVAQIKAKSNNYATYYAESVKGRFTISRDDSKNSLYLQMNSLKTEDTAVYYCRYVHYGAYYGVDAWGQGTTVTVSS VL: DIVMTQSPLSLPVTPGEPASISCDSSQSLVHSNRNTYLHWYQQKPGQAPRLLIYKVSNRFSGVPDRFSGSGSGTDFTLKISRVEAEDVGVYYCGQGTQVPYTFGQGTKLEIK : 0.83

Source: patent US20210388087A1
